Target: T1, TFECDHis (extracellular domain of tissue factor, amino acid 1-251, with C-terminal His tag) (human, UniProt P13726 33-251)
T1 construct: range 1-251; The stated range 1-251 starts at residue 1 of NP-001984; also called extracellular domain of TF
Assay: SPR BIAcore 3000, HuMab immobilized, TFECDHis analyte
Method: Antibody binding to TF was analyzed by surface plasmon resonance in a BIAcore 3000 (GE Healthcare). TFECDHis was used for the analysis. HuMab antibodies (500 resonance units) were immobilized on the CM-5 sensor chip according to the procedure recommended by the manufacturer. Briefly, after surface activation by EDC and NHS HuMab antibody was injected over the activated CM-5 surface in 10 mM sodium-acetate, pH ranging from 4.0 to 5.5 at 5 μl/min. followed by 1 M Ethanolamine for deactivation. […]
MEASURED QUANTITY: pKd
The value called pKd is obtained by taking minus log10 of the concentration in mol/L.

The examples below pair each entry with its known result.
binder="anti-TF HuMab 092-A09 (antibody, V domains shown, Human monoclonal antibody from HuMab mice) VH: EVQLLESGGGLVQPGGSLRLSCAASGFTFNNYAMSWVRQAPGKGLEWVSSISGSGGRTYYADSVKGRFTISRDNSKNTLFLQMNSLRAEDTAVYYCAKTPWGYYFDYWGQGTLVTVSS VL: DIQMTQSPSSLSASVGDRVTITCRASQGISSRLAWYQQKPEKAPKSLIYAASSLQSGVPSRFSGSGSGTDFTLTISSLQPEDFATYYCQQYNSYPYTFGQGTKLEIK" measured_quantity=pKd endpoint_result=7.85
binder="anti-TF HuMab 013 (antibody, V domains shown, Human monoclonal antibody from HuMab mice; also called HuMab-TF-13) VH: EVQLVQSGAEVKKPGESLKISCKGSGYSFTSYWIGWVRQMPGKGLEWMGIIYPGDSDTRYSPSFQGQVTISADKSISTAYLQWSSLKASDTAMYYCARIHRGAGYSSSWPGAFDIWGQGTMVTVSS VL: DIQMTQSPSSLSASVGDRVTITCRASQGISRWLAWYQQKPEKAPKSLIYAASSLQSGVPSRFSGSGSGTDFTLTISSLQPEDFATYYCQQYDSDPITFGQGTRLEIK" measured_quantity=pKd endpoint_result=8.56

Input: Report measured pKd; entry is anti-TF HuMab 011 (antibody, V domains shown, Human monoclonal antibody from HuMab mice; also called HuMab-TF-11) VH: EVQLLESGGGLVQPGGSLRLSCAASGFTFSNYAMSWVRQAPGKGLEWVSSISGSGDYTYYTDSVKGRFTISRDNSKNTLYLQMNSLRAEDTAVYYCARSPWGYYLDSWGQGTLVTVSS VL: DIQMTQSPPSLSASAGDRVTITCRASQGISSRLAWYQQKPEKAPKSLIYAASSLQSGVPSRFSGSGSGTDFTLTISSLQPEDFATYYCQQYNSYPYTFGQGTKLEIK
Output: 8.50

Input: Report measured pKd; entry is anti-TF HuMab 109 (antibody, V domains shown, Human monoclonal antibody from HuMab mice) VH: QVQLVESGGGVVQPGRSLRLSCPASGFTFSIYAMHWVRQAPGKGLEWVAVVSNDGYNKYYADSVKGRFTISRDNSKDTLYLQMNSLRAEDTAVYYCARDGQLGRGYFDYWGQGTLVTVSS VL: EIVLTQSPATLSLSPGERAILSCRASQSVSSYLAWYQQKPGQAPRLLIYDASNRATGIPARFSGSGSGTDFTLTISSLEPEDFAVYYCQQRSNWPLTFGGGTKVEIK
Output: 8.32

Input: Report measured pKd; entry is anti-TF HuMab 003 (antibody, V domains shown, Human monoclonal antibody from HuMab mice; also called HuMab-TF-003) VH: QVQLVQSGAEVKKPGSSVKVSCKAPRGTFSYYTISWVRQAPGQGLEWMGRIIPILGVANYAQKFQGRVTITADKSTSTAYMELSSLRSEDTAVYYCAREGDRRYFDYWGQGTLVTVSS VL: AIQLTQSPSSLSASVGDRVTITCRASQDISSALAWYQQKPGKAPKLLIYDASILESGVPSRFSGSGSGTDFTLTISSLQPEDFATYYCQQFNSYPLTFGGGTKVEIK
Output: 8.35

Input: Report measured pKd; entry is anti-TF HuMab 025 (antibody, V domains shown, Human monoclonal antibody from HuMab mice) VH: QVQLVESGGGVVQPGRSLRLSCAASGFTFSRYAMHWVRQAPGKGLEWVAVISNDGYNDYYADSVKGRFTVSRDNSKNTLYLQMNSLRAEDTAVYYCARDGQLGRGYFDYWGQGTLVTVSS VL: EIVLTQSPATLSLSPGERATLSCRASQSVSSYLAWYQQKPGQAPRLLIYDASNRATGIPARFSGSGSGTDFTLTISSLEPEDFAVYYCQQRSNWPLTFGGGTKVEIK
Output: 8.71
